Reference source: patent US10501413B2

assay_system: Notch transcriptional activation complex (CSL, Notch1, MAML1 on DNA) (Homo sapiens, UniProt P46531+Q06330)
Construct: the intracellular domain of Notch (“NICD”)
experiment_notes: Notch complex assembly assay (ALPHASCREEN)
Description: An in vitro assay was developed to monitor the assembly of the Notch transcriptional complex (“NTC”) on DNA. The NTC, which includes the Notch, Mastermind (“MAML1”), and CSL proteins, binds to a specific DNA sequence in a CSL-dependent manner. […] Assembly of the NTC on DNA was then monitored with the proximity-based ALPHASCREEN (Perkin Elmer) using streptavidin and protein A beads (FIGS. 1A and 1B). […]
measured_parameter: IC50 (nM)

smiles_string | IC50 / nM
C=CCc1cc(/C=C2\SC(=S)NC2=O)cc(OC)c1OCC(=O)O | 6000

(a) CN(C)C(=O)CN1C(=O)/C(=C/c2cc(F)ccc2O)SC1=S
(b) O=C(O)COc1ccccc1/C=C1\SC(=S)NC1=O
Quick check, higher IC50 between a and b ? Mark your selection by writing its label.
a
(a: 500 nM, b: 70 nM)

###

assay_system: CSL (Homo sapiens, UniProt Q06330)
Sequence (Q06330 whole entry): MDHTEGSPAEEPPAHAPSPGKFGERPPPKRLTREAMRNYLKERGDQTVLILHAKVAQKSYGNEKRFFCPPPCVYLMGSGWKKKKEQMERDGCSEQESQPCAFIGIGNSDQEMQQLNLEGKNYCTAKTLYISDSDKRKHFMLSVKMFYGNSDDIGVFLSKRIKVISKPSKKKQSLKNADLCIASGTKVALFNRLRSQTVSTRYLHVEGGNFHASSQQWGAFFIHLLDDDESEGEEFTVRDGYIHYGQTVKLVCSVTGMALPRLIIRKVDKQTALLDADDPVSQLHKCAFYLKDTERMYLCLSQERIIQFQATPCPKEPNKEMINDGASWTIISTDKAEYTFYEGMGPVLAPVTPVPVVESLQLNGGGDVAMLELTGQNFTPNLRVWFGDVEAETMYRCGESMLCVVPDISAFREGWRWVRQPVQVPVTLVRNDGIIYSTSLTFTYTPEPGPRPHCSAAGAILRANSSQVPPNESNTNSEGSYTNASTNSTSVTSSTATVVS
experiment_notes: Surface plasmon resonance binding to CSL
experimental_setup: SPR, equilibrium response fitted to 1:1 binding model
measured_parameter: Kd (µM)

Worked examples follow.
smiles_string | assay_system | Kd / µM
CN(C)C(=O)CN1C(=O)/C(=C/c2cc(F)ccc2O)SC1=S | CSL (Homo sapiens, UniProt Q06330) | 13
COc1cccc(/C=C2\SC(=S)N(CC(=O)N(C)C)C2=O)c1O | CSL (Homo sapiens, UniProt Q06330) | 6.4
COc1cc(/C=C2\SC(=S)NC2=O)ccc1OCC(=O)O | CSL (Homo sapiens, UniProt Q06330) | 3.6

(A) CCOC(=O)COc1ccc(/C=C2\SC(=S)NC2=O)cc1OC
(B) O=C(O)COc1ccccc1/C=C1\SC(=S)NC1=O
(C) C=CCc1cc(/C=C2\SC(=S)NC2=O)cc(OC)c1OCC(=O)O
Hey, quick one: sort these by Kd, low to high? When ranking, write the labels in the order the request describes.
B, A, C

###

assay_system: NICD1 (Homo sapiens, UniProt P46531)
Construct: the intracellular domain of Notch (“NICD”)
Sequence (P46531 1754-2555 limits assumed): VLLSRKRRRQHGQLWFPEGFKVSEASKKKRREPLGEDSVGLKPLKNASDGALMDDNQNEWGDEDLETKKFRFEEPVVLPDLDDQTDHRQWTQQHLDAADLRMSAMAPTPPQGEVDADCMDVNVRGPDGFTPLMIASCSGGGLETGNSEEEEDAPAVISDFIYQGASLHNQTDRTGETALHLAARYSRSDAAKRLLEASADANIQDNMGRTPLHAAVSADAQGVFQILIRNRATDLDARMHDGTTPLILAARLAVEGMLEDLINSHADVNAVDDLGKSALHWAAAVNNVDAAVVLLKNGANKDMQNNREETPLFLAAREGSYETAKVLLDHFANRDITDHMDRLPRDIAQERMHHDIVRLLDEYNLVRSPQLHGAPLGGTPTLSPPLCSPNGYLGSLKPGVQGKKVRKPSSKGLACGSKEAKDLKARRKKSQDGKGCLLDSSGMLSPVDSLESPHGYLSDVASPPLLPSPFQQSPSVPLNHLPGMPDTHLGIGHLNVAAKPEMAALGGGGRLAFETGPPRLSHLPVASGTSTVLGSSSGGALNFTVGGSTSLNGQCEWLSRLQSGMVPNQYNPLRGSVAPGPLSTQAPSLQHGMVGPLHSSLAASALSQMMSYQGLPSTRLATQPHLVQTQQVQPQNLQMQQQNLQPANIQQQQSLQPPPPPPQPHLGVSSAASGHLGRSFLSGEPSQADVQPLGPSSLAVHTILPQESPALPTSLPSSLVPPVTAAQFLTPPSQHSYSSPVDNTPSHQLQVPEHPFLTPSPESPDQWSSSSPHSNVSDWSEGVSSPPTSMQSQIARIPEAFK
experiment_notes: Surface plasmon resonance binding to immobilized NICD
experimental_setup: SPR, equilibrium response fitted to 1:1 binding model
measured_parameter: Kd (µM)

smiles_string | Kd [µM]
C=CCc1cc(/C=C2\SC(=S)NC2=O)cc(OC)c1OCC(=O)O | 17

(1) CCOC(=O)COc1ccc(/C=C2\SC(=S)NC2=O)cc1OC
(2) COc1cc(/C=C2\SC(=S)NC2=O)ccc1OCC(=O)O
Sorting ascending by Kd, which comes first: 1 or 2 ? When you have decided, please share the label of that item.
2
(2: 2.9 µM, 1: 11 µM)

###

assay_system: Notch transcriptional activation complex (CSL, Notch1, MAML1 on DNA) (Homo sapiens, UniProt P46531+Q06330)
Construct: the intracellular domain of Notch (“NICD”)
experiment_notes: Notch complex assembly assay (ALPHASCREEN)
measured_parameter: IC50 (nM)

(1) COc1cc(/C=C2\SC(=S)NC2=O)ccc1OCC(=O)O
(2) CCOC(=O)COc1ccc(/C=C2\SC(=S)NC2=O)cc1OC
Task for the reader: decide whether 1 or 2 has the larger IC50. Reply briefly: the label of your chosen item.
2
(2: 26000 nM, 1: 500 nM)

###

assay_system: NICD1 (Homo sapiens, UniProt P46531)
Construct: the intracellular domain of Notch (“NICD”)
experiment_notes: Surface plasmon resonance binding to immobilized NICD
experimental_setup: SPR, equilibrium response fitted to 1:1 binding model
measured_parameter: Kd (µM)

smiles_string | result_units | result_value
COc1cccc(/C=C2\SC(=S)N(CC(=O)N(C)C)C2=O)c1O | µM | 5.7

(1) CN(C)C(=O)CN1C(=O)/C(=C/c2cc(F)ccc2O)SC1=S
(2) O=C(O)COc1ccccc1/C=C1\SC(=S)NC1=O
When their Kd values are compared, which is larger, 1 or 2 ? Please respond with the label that marks your chosen entry.
2
